Value source: patent US11001824

Biological target: T1, denatured bovine pancreatic Ribonuclease B (bovine, UniProt P61823 27-150)
T1 construct: mature; also called dRNase B; denatured RNase B
T1 sequence: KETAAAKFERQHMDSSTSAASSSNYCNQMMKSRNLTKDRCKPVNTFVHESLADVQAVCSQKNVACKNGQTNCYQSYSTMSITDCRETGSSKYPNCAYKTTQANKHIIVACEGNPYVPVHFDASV
Test: SPR (Biacore 3000), dRNase B immobilised on CM5
Measurement Name: koff
In your response, put the unit directly after the numeric value.

Ask | Please give measured koff of the following entry: wild-type PNGase F from Flavobacterium meningosepticum (enzyme, also called wtPNGase F; 1PNF) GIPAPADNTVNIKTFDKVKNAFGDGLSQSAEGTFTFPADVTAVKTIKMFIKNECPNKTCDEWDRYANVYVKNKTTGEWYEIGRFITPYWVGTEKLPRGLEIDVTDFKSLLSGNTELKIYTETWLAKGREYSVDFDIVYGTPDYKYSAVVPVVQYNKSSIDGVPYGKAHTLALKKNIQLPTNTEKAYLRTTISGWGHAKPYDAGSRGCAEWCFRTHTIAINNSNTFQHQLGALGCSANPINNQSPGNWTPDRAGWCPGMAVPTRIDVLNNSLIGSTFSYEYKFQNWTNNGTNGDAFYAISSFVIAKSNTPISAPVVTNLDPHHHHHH
Reply | 0.01 s⁻¹
